Values compiled from PubChem BioAssay.

assay: E. coli acrAB mutant growth effects, primary screen, E. coli filamentation inducers, strain DRC39, OD650, 24 h (AID 1178); details: higher = more signal, called active from +8 up or from −8 down;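 also: growth measured as culture turbidity by optical density at 650 nm; test concentration not given here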
Mark yes for reported z-score of 0.3 or greater; mark no for anything smaller.

compound	class
C=C(COC)/C(=C/C[C@H](OC(=O)c1ccncc1)c1ccc(OCCO)cc1)c1cnc2ccccc2c1	no
O=C1[C@H]2C=C(Br)[C@H](C[C@@H]2OCCCCO)[C@@]12CO2	no
COCCOC(=O)N1C(=O)[C@@]2(c3cc(C#Cc4ccc(OC)cc4)ccc31)[C@H](C(=O)N1CCCCCCC1)[C@H]1C(=O)O[C@H](c3ccccc3)[C@H](c3ccccc3)N1[C@@H]2c1ccc(OCCO)cc1	yes
C=CCOC(=O)[C@H]1[C@@H]2C(=O)O[C@@H](c3ccccc3)[C@@H](c3ccccc3)N2[C@@H](c2ccc(OCCOC(=O)[C@H]3C[C@H]4C(=O)N5CCC[C@H]5C(=O)N4[C@H]3c3ccc(O)cc3)cc2)[C@]12C(=O)Nc1ccccc12	no
C=CCNC(=O)[C@@H]1[C@H]2C(=O)O[C@H](c3ccccc3)[C@H](c3ccccc3)N2[C@H](c2ccccc2OCCO)[C@@]12C(=O)N(C(=O)OCCOC)c1ccc(C#CCNC(N)=O)cc12	yes
C=CCC(OC(C)=O)[C@@H]1[C@@H](N(Cc2ccc(-c3cccc(C(F)(F)F)c3)o2)C(=O)c2ccc(-c3ccccc3)cc2)c2cc(OCCCO)ccc2N1C(=O)c1ccc(-c2ccccc2)cc1 (stereo partly drawn)	no
COCCOC(=O)N1C(=O)[C@@]2(c3cc(C#CC4=CCCCC4)ccc31)[C@H](C(N)=O)[C@H]1C(=O)O[C@H](c3ccccc3)[C@H](c3ccccc3)N1[C@@H]2c1ccc(OCCO)cc1	no
CC(C)(C)OC(=O)CC[C@]12N=C(c3ccc(OCCCO)cc3)O[C@H]1c1ccccc1N(CCS(=O)(=O)c1ccccc1)C2=O	yes
COCCn1c(C(=O)N2CCCC2)cc2c1C[C@H]1CN(C(=O)c3ccccc3)[C@@](Cc3ccc(F)cc3)(C(=O)OC)[C@@H]21	no
O=C1C[C@]2(c3ccc([N+](=O)[O-])cc3)C(=O)N(CCN3CCOCC3)c3cc(CO)ccc3[C@H]2N1C1CCCCC1	yes
CN1C(=O)C2C=CC(C(O)c3ccccc3)N(Nc3ccccc3)C2C1=O (stereo not drawn)	no
CC(C)(C)C(=O)N[C@@H](c1ccc(Cl)cc1)[C@]1(C)C[C@H]1C1CCCCC1	no

---

tested on: Fibrinogen (Alexa647-labelled); assay: fibrinogen binders on compound microarrays, profiling panel, artefact control for SMM control-protein annotation, biochemical, small-molecule microarray, 635/667 nm fluorescence (AID 1131); settings: fibrinogen-A647 binding fluorescence, higher = more signal;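 also: z-score merges 667 nm fluorescence with per-spot signal-to-noise over triplicate slides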
measured.attribute: composite z-score

> print(dat)
                                   molecule  observed.value
1  COc1ccc(C(O)C2C=CC3C(=O)N(c4ccccc4)C(=O)C3N2Nc2ccc(C(C)C)cc2)cc1OCc1ccccc1 (stereo not drawn)           0.973
2  C#CCNC(=O)[C@H](Cc1ccccc1)NC(=O)CCC(=O)O           -1.74
3  COc1ccc(CCN2C(=O)[C@@]3(Cc4ccccc42)c2ccccc2C(=O)N(Cc2ccccc2C(F)(F)F)[C@H]3c2ccc(CO)cc2)cc1           0.732

---

assay: small-molecule microarray binders of probe aXIP, primary screen, biochemical, NeuroSMM set, 635/667 nm fluorescence (AID 1119); conditions: higher = more signal, called active from +8 up or from −8 down;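 also: probe is the protein aXip251-270 applied at 1 µg/mL to compound-printed slides; binding of probe to printed compounds measured as 667 nm fluorescence plus signal to noise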
measured.attribute: composite Z-score

> print(dat)
                                   compound  observed.value
1  COc1ccc([Si](C)(C)[C@@H]2[C@@H](CC(=O)N3Cc4ccccc4C[C@H]3CO)O[C@]3(C(=O)N(C)c4c(Br)cc(C)cc43)[C@H]2C)cc1           0.136
2  O=C1C2C=CC(C(O)C(c3ccccc3)c3ccccc3)N(n3cnnc3)C2C(=O)N1Cc1ccccc1 (centres undefined)          0.0479
3  C[C@]1(C(=O)NC2CC2)c2ccccc2C(=O)N(Cc2cc(C(F)(F)F)cc(C(F)(F)F)c2)[C@H]1c1ccc(CO)cc1           0.676
4  O=C1OCCC/C=C\[C@H]2OC34C=CCN(c5ccc6ccccc6c5)C(=O)[C@H]3N(CCCCCCO)C(=O)[C@@H]4C12 (some centres undefined)           0.611

---

composite z-score listing for selected compounds.
system: Human papillomavirus type 1a protein E7 (residues 44-93); assay: HPV1a E7 fragment binders on microarrays, primary screen, biochemical, small-molecule microarray, residues 44-93, 635 nm fluorescence (AID 1108); conditions: small-molecule microarray binding, fluorescence 635 nm; higher = more signal;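 also: E7 fragment applied at 1 µg/mL in TBST for 1 h at 4 C; score combines spot fluorescence with its signal to noise ratio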
measured.attribute: composite z-score

compound	observed.value
C=CCOC(=O)[C@H]1[C@@H]2C(=O)O[C@@H](c3ccccc3)[C@@H](c3ccccc3)N2[C@@H](c2ccc(OCCOC(=O)[C@H]3C[C@H]4C(=O)N[C@@H](CC(C)C)C(=O)N4[C@H]3c3ccc(O)cc3)cc2)[C@]12C(=O)Nc1ccc(I)cc12	1.41
O=C1C2C=CC(C(O)c3c(F)cccc3Cl)N(Nc3ccccc3)C2C(=O)N1c1ccccc1 (configuration not stated)	1.46
CCCCN1CC=CC23O[C@@H]4C=CCOC(=O)[C@@H]4[C@H]2C(=O)N(CCCCCO)[C@@H]3C1=O (some centres not stated)	-0.524
COC(=O)[C@@]1(Cc2ccc(OC)cc2)[C@H]2c3cc(C(=O)N4CCCC4)n(Cc4ccccc4)c3C[C@H]2CN1C(=O)c1ccccc1	1.16
COC(=O)[C@@]1(Cc2ccc(F)cc2)[C@H]2c3cc(C(=O)N(C)C)n(Cc4ccc(S(C)(=O)=O)cc4)c3C[C@H]2CN1C(=O)c1ccccc1	-0.164
COCCCNC(=O)[C@@]1(Cc2ccccc2)N=C(c2ccc(OCCCO)cc2)O[C@H]1c1ccccc1	0.53
COc1ccc([Si](C)(C)[C@@H]2[C@@H](CC(=O)N3Cc4ccccc4C[C@H]3CO)O[C@]3(C(=O)N(C)c4c(Br)cc(C)cc43)[C@H]2C)cc1	1.37
CN(C)CCCC[C@@H]1NC(=O)[C@H]2C[C@@H](C(=O)NCCCCCNC(=O)CS)[C@@H](c3cccc(OCCO)c3)N2C1=O	0.586
COc1ccc([Si](C)(C)[C@H]2[C@H](CCO)O[C@@]3(C(=O)N(C)c4c(Br)cc(C)cc43)[C@@H]2C)cc1	-0.122
O=C1[C@H]2C=C(Br)[C@H](C[C@@H]2OCCCCO)[C@@]12CO2	-0.875
CN1C2C=C(CCCO)C(C3C(=O)N(C(N)=O)C(=O)C32)C1c1ccc(CN2CCCC2)cc1 (configuration not stated)	0.138
C=CCNC(=O)[C@H]1[C@@H]2C(=O)O[C@@H](c3ccccc3)[C@@H](c3ccccc3)N2[C@@H](c2ccc(O)cc2)[C@]12C(=O)N(C(=O)OCCOC)c1ccc(C#CCNC(N)=O)cc12	0.863
COc1ccc(C(=O)Nc2ccc(CN3C(=O)[C@@]4(O[C@@H](CC(=O)N5CCC[C@H]5CO)[C@H]([Si](C)(C)c5ccc(OC)cc5)[C@H]4C)c4ccccc43)cc2)cc1	0.825
COc1ccc(C(=O)O[C@H]2CC[C@]3(C)C4=C(CCC3C2(C)C)[C@]2(C)CC[C@H]([C@H](C)CCCC(C)C)[C@@]2(C)CC4)cc1 (some centres not stated)	-0.0389
O=C1O[C@H](c2ccccc2)[C@H](c2ccccc2)N2[C@H]1[C@@H](C(=O)O)[C@]1(C(=O)Nc3ccc(C#CCCO)cc31)[C@H]2c1ccc(O)cc1	-0.038
Cc1ccc(S[C@]2(C(=O)NCCN3CCOCC3)CC(=O)N(Cc3ccccc3Cl)[C@@H]2c2ccc(CO)cc2)cc1	1.02
COc1ccc([Si](C)(C)[C@@H]2[C@@H](CCO)O[C@]3(C(=O)N(Cc4ccc(N5C(=O)COc6ccccc65)cc4)c4ccccc43)[C@H]2C)cc1	-0.674
C=CCNC(=O)[C@@H]1[C@H]2C(=O)O[C@H](c3ccccc3)[C@H](c3ccccc3)N2[C@H](c2ccccc2OCCO)[C@@]12C(=O)N(C(=O)OCCOC)c1ccc(C#CCNC(N)=O)cc12	1.36
CCCCC(=C=CC[C@@H](O)c1ccccc1OCCO)CCO	-0.0803
CCCC=C(CCC)[C@@H](NS(=O)(=O)c1cccs1)c1ccc(C(=O)OC)cc1	1.37
O=C(c1ccccc1)N1Cc2ccccc2[C@@H]2OC(c3ccc(OCCCO)cc3)=N[C@]2(Cc2ccccc2)C1=O	1.29
CC(=O)NCCCC[C@@H]1NC(=O)[C@@H]2C[C@H](C(=O)NCCCCCCNC(=O)CS)[C@H](c3cccc(OCCO)c3)N2C1=O	0.517
COCCOC(=O)N1C(=O)[C@@]2(c3cc(C#CCCO)ccc31)[C@H](C(=O)N1CCc3cc(OC)c(OC)cc3C1)[C@H]1C(=O)O[C@H](c3ccccc3)[C@H](c3ccccc3)N1[C@@H]2c1ccc(O)cc1	1.41
COCCOC(=O)N1C(=O)[C@@]2(c3cc(C#CC4=CCCCC4)ccc31)[C@H](c1ccc(O)cc1)N1[C@H](c3ccccc3)[C@H](c3ccccc3)OC(=O)[C@H]1[C@@H]2C(N)=O	1.19
O=C1NC(=O)C2C1C=CC(C(O)C(c1ccccc1)c1ccccc1)N2Nc1ccc(Cl)cc1Cl (configuration not stated)	1.36
C=CCC(OC(C)=O)[C@@H]1[C@@H](N(Cc2ccc(-c3ccccc3)cc2)C(=O)Cc2ccc(F)cc2)c2cc(OCCCO)ccc2N1C(=O)c1ccc(-c2ccccc2)cc1 (some centres not stated)	-0.866
O=C(C1N=C(c2ccc(OCCCO)cc2)N(c2ccccc2)O1)N1CCOCC1 (configuration not stated)	1.37
